Data credit: the kinase profiling compilation of Christmann-Franck et al. (2016)

# TESTED SYSTEM: PAK3 (human)
# ASSAY PROCEDURE: radiometric filter-binding kinase assay, Kinase HotSpot
# SETTINGS: compound 0.5 µM; ATP 10 µM
MEASURE NAME: residual activity (%)
Kindly answer with a numeric value in %, unit omitted.

# QUERY SMILES, READOUT UNIT, residual activity
records = [
    ("O=C1NC(=O)C(c2cn(CCCO)c3ncccc23)=C1c1cnccn1", "%", 92.9),
]

Q: Give residual activity for O=C1NC(=O)/C(=C\c2ccc3nccnc3c2)S1
Result: 97.4

Q: Give a short answer stating reported residual activity for Cn1cnc2cc3c(Nc4cccc(Br)c4)ncnc3cc21 .
Result: 98.5

Q: Determine its reported residual activity: CN([C@@H](Cc1ccc(OS(=O)(=O)c2cccc3cnccc23)cc1)C(=O)N1CCN(c2ccccc2)CC1)S(=O)(=O)c1cccc2cnccc12
Result: 102

Q: In one line, give reported residual activity of the entry Nc1nccc(-c2c(-c3ccc(F)cc3)ncn2C2CCNCC2)n1 .
Result: 105

---

# TESTED SYSTEM: IKBKB (human) (UniProt O14920)
# Sequence (O14920 whole entry, looked up): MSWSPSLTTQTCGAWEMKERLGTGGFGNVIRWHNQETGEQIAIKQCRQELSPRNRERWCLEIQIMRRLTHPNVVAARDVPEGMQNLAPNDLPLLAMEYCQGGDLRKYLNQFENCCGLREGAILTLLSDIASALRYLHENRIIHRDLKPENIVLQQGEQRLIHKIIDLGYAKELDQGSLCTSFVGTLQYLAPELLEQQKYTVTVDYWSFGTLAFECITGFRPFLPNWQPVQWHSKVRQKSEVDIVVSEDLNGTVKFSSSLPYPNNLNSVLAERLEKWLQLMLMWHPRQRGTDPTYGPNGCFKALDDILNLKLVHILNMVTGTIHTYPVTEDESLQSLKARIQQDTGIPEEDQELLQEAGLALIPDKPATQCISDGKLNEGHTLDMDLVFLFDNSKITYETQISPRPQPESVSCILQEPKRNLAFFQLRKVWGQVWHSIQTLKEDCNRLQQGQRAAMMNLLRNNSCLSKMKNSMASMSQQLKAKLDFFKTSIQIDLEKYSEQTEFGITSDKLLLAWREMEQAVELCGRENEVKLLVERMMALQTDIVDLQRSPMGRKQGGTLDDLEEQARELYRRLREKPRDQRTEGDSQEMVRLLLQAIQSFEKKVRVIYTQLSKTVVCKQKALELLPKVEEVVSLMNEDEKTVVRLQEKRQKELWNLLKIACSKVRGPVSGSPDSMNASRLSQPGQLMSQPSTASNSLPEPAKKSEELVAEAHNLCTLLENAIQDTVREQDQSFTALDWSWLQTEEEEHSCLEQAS
# ASSAY PROCEDURE: radiometric filter-binding kinase assay, Kinase HotSpot
# SETTINGS: compound 0.5 µM; ATP 10 µM
Each entry below carries its reported residual activity.
Numbers only; they are read as %.

# MOLECULE, READOUT UNIT, residual activity
rows = [
    ("Cn1nc2c3c(cccc31)C(=O)c1ccccc1-2", "%", 103),
]

Q: Please indicate residual activity recorded for COc1ccc(CNC(=O)Nc2ncc([N+](=O)[O-])s2)cc1
Result: 94.9

Q: Give residual activity for the following molecule: CC(=O)O/N=C1\C(=C2\C(=O)Nc3cc(Br)ccc32)Nc2ccccc21
Result: 92.4

Q: Tell me measured residual activity for COc1cc2ncc(-c3ccccc3)nc2cc1OC please.
Result: 101

Q: Supply recorded residual activity for O=C(Nc1cccc(Nc2cc(Nc3cccc(C(F)(F)F)c3)ncn2)c1)C1CC1 here.
Result: 100

---

Documented residual activity across a set of molecules
# TESTED SYSTEM: PAK1 (human) (UniProt Q13153)
# Sequence (Q13153 whole entry, looked up): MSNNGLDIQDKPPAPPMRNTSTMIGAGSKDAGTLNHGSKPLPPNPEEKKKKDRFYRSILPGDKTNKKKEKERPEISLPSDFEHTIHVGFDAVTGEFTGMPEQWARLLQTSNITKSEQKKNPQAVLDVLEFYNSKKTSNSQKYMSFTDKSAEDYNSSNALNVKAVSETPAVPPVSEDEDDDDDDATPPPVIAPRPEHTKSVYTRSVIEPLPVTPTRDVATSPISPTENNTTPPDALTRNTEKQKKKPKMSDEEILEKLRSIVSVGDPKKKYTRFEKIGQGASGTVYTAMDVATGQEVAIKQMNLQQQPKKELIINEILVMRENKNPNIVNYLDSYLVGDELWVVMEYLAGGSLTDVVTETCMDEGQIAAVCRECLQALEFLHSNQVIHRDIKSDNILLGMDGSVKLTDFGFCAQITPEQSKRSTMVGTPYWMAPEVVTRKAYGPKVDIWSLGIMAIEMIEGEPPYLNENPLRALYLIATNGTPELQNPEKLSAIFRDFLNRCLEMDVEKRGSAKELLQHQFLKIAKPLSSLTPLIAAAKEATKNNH
# ASSAY PROCEDURE: radiometric filter-binding kinase assay, Kinase HotSpot
# SETTINGS: compound 0.5 µM; ATP 10 µM
Quick reminder: number only, in %, skip the unit.

# annotated cases, reported residual activity shown
# MOLECULE, residual activity, %
measured = [
    ("CN(C)C[C@H]1CCn2c(c(C3=C(c4cn(C)c5ccccc45)C(=O)NC3=O)c3ccccc32)C1", 99.8),
    ("COc1cc2ncc(-c3ccccc3)nc2cc1OC", 91.3),
    ("CC(C)c1nn(-c2c(Cl)cccc2Cl)c2nc(Cc3ccc(OCCO)cc3)nc(O)c12", 89.7),
    ("Oc1ccc(Nc2nc(-c3ccc(Cl)cc3)cs2)cc1", 99.4),
    ("Cn1sc(=O)n(Cc2ccccc2)c1=O", 94.1),
    ("O=C(O)/C=C/c1cc(Br)c(Br)c(Br)c1Br", 105),
    ("O=C1NC(=O)C(c2c[nH]c3ccccc23)=C1c1c[nH]c2ccccc12", 83.5),
    ("O=C1NC(=O)C(c2cn(CCCO)c3ncccc23)=C1c1cnccn1", 101),
    ("Cc1nc2cc3nc(-c4cccs4)cnc3cc2n1C", 86.6),
    ("O=C(Nc1cccc(Nc2cc(Nc3cccc(C(F)(F)F)c3)ncn2)c1)C1CC1", 96.6),
]

Q: // Input: O=C1Cc2c([nH]c3ccc(Br)cc23)-c2ccccc2N1 . Output its residual activity only.
Result: 85

Q: Please indicate residual activity recorded for COc1ccc(CNC(=O)Nc2ncc([N+](=O)[O-])s2)cc1
Result: 94.2

Q: For the molecule O=C1Nc2ccccc2/C1=C1/Nc2ccccc2/C1=N\OCCC(O)CO (configuration not stated) , give its measured residual activity value.
Result: 71.3

Q: Supply recorded residual activity for CC(C)[C@H](CO)Nc1nc(Nc2cc(N)cc(Cl)c2)c2ncn(C(C)C)c2n1 here.
Result: 81.8

Q: // fetch residual activity given entry CCn1cnc2c(Nc3cccc(Cl)c3)nc(N[C@@H]3CCCC[C@@H]3N)nc21
Result: 88.8

Q: Return value of residual activity for input O=C(CCCc1ccc(-c2ccccc2F)cc1)Nc1ccc(O)cc1 , no commentary.
Result: 95.4

Q: State, in one line, measured residual activity of O=C1Nc2ccccc2/C1=C1\Nc2ccccc2\C1=N/O
Result: 86.1

Q: Supply measured residual activity of COc1ccc(OC)c2c(=S)c3ccccc3[nH]c12 in your reply.
Result: 89.2

Q: # return recorded residual activity for input CC(=O)O/N=C1\C(=C2\C(=O)Nc3cc(Br)ccc32)Nc2ccccc21
Result: 93.6

Q: Assign residual activity to the following record: COc1cc2ncnc(N3CCN(C(=O)Nc4ccc(Oc5ccccc5)cc4)CC3)c2cc1OC
Result: 91.8

Q: Identify measured residual activity corresponding to CCN(CC)CCCCN1c2ccccc2Oc2ccc(Cl)cc21
Result: 87.7

Q: Supply residual activity value. Item: O=C1NC(=O)/C(=C\c2ccc3nccnc3c2)S1
Result: 96

---

Overview of recorded residual activity for various molecules
# TESTED SYSTEM: UniProt:P35626
# Sequence (P35626 whole entry, looked up): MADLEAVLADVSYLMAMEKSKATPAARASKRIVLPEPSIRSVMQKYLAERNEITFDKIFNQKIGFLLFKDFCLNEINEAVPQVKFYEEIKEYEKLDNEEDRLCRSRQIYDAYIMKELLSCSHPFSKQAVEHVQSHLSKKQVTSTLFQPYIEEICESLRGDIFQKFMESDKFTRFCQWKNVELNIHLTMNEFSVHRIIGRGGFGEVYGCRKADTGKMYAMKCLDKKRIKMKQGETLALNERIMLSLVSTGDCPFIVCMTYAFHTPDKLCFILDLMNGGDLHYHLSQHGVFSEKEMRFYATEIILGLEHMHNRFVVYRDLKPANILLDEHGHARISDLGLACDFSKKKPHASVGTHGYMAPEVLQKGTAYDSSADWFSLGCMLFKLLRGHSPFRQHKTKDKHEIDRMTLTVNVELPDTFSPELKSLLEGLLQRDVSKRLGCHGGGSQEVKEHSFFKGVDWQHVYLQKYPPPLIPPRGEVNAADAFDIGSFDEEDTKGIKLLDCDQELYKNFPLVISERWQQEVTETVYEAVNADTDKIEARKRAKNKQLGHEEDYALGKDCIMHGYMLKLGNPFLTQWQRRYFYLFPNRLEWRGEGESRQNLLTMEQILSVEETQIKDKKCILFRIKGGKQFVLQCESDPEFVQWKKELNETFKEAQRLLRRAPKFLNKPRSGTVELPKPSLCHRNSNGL
# ASSAY PROCEDURE: radiometric filter-binding kinase assay, Kinase HotSpot
# SETTINGS: compound 0.5 µM; ATP 10 µM
Use % as the unit, but write only the number.

# QUERY SMILES, MEASURE NAME, READOUT UNIT, MEASUREMENT
records = [
    ("Nc1nnc2[nH]c3ccccc3nc1-2", "residual activity", "%", 92.4),
    ("COc1cc2ncnc(N3CCN(C(=O)Nc4ccc(Oc5ccccc5)cc4)CC3)c2cc1OC", "residual activity", "%", 106),
    ("COc1ccc(CNC(=O)Nc2ncc([N+](=O)[O-])s2)cc1", "residual activity", "%", 112),
]

Consider the additional molecule presented here.
Q: Give the reported residual activity for this molecule. CC(=O)O/N=C1\C(=C2\C(=O)Nc3cc(Br)ccc32)Nc2ccccc21
Result: 95.7

---

# TESTED SYSTEM: MAP3K8 (human) (UniProt P41279)
# Sequence (P41279 whole entry, looked up): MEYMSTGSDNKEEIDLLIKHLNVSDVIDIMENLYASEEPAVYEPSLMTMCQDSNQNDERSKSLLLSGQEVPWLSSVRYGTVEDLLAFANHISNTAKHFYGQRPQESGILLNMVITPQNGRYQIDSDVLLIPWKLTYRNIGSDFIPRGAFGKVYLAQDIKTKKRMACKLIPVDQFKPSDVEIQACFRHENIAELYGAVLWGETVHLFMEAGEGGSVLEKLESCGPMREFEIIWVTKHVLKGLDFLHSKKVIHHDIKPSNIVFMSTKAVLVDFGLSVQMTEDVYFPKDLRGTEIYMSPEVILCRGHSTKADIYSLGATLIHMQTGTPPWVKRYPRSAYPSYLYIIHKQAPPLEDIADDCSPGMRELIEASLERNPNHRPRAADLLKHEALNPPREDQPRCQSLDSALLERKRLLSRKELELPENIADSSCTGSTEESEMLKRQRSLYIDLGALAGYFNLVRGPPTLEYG
# ASSAY PROCEDURE: radiometric filter-binding kinase assay, Kinase HotSpot
# SETTINGS: compound 0.5 µM; ATP 10 µM
MEASURE NAME: residual activity
// unit must come after the numeric part

Solved entries:
# QUERY SMILES, TESTED SYSTEM, residual activity
rows = [
    ("Cn1cnc2cc3c(Nc4cccc(Br)c4)ncnc3cc21", "MAP3K8 (human) (UniProt P41279)", "90.1%"),
    ("Cn1nc2c3c(cccc31)C(=O)c1ccccc1-2", "MAP3K8 (human) (UniProt P41279)", "94.3%"),
    ("O=C(CCCc1ccc(-c2ccccc2F)cc1)Nc1ccc(O)cc1", "MAP3K8 (human) (UniProt P41279)", "101%"),
    ("O=C1NC(=O)/C(=C\\c2ccc3nccnc3c2)S1", "MAP3K8 (human) (UniProt P41279)", "99.6%"),
    ("CC(C)c1nn(-c2c(Cl)cccc2Cl)c2nc(Cc3ccc(OCCO)cc3)nc(O)c12", "MAP3K8 (human) (UniProt P41279)", "96.4%"),
    ("CCn1cnc2c(Nc3cccc(Cl)c3)nc(N[C@@H]3CCCC[C@@H]3N)nc21", "MAP3K8 (human) (UniProt P41279)", "93.6%"),
    ("Oc1ccc(Nc2nc(-c3ccc(Cl)cc3)cs2)cc1", "MAP3K8 (human) (UniProt P41279)", "94.9%"),
    ("CCN(CC)CCCCN1c2ccccc2Oc2ccc(Cl)cc21", "MAP3K8 (human) (UniProt P41279)", "94.7%"),
    ("COc1ccc(CNC(=O)Nc2ncc([N+](=O)[O-])s2)cc1", "MAP3K8 (human) (UniProt P41279)", "96.2%"),
    ("COc1cc2ncnc(N3CCN(C(=O)Nc4ccc(Oc5ccccc5)cc4)CC3)c2cc1OC", "MAP3K8 (human) (UniProt P41279)", "95.1%"),
]

Q: Return residual activity (reported value) for this compound: Cc1nc2cc3nc(-c4cccs4)cnc3cc2n1C
Result: 99%

Q: Give recorded residual activity. O=C1Nc2ccccc2/C1=C1\Nc2ccccc2\C1=N/O
Result: 106%

---

# TESTED SYSTEM: DYRK4 (human)
# ASSAY PROCEDURE: radiometric filter-binding kinase assay, Kinase HotSpot
# SETTINGS: compound 0.5 µM; ATP 10 µM
Catalogue of residual activity values
Report the figure in % without appending any unit label.

# QUERY SMILES, TESTED SYSTEM, MEASURE NAME, MEASUREMENT
rows = [
    ("COc1cc2ncnc(N3CCN(C(=O)Nc4ccc(Oc5ccccc5)cc4)CC3)c2cc1OC", "DYRK4 (human)", "residual activity", 79.8),
    ("CCN(CC)CCCCN1c2ccccc2Oc2ccc(Cl)cc21", "DYRK4 (human)", "residual activity", 100),
    ("Cn1sc(=O)n(Cc2ccccc2)c1=O", "DYRK4 (human)", "residual activity", 99.3),
]

Moving on to another compound below.
Q: Provide measured residual activity value, entry: CC(=O)O/N=C1\C(=C2\C(=O)Nc3cc(Br)ccc32)Nc2ccccc21
Result: 96.7
